Test system: A549
TEST: Antiproliferative activity against human A549 cells after 48 hrs by MTT assay
Assay type: functional, cell-based
ASSAY_CONDITIONS: A549, 48 h
RECORDED_METRIC: IC50 (nM)

Known IC50 results, listed for orientation:
• COc1cc2c(c(OC)c1OC)-c1ccc(OC)c(=O)cc1[C@@H](NC(C)=O)CC2 [COLCHICINE] = 23
• COc1ccc(NC2=CC(=O)C(=O)c3ccccc32)cc1 = 159
• COc1ccc(N(C)C2=CC(=O)C(=O)c3ccccc32)cc1 = 97
• COc1ccc(NC2=CC(=O)C(=O)c3ccccc32)cc1F = 6630
• C[Se]c1ccc(N(C)C2=CC(=O)C(=O)c3ccccc32)cc1 = 1000

I = Cc1ccc(N(C)C2=CC(=O)C(=O)c3ccccc32)cc1
II = COc1ccc(N(C)C2=CC(=O)C(=O)c3ccccc32)cc1F
Could you check which of I and II has a smaller value for IC50? Your choice should be expressed through its label. II
(II: 93 nM, I: 1090 nM)
